Entries and their inhibition at 1 µM values follow.
Molecular target: RORγt (Homo sapiens, UniProt P51449)
Sequence (P51449 1-497 isoform P51449-2, species assumed): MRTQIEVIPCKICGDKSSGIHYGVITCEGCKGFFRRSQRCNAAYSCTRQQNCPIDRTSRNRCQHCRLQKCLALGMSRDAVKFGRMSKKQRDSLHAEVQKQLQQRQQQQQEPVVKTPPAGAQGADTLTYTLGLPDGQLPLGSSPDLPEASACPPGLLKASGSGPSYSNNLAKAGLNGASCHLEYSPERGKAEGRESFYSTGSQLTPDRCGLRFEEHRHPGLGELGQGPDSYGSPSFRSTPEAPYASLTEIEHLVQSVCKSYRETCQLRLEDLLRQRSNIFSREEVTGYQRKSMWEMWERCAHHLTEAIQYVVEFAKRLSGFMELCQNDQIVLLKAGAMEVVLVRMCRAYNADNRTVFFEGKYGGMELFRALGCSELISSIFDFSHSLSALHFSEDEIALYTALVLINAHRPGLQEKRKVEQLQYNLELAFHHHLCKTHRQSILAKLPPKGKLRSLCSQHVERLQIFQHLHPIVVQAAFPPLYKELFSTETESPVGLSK
Experiment: Cofactor recruitment test (Alpha Screen, biotinylated SRC-1 peptide)
Assay type: biochemical
Settings: read-out: signal value inhibitory rate (%) at test compound 1 μM
quantity_kind: inhibition at 1 µM (%)

compound: CC(C)n1c(=O)n(CC2CC2)c(=O)c2cc(NC(=O)N3CCC[C@@H](N4Cc5ccc(C#N)cc5C4=O)C3)c(F)cc21 [Example 323]
quantity_kind: inhibition at 1 µM
unit_abbrev: %
measured_result: 108
//
compound: CC(C)n1c(=O)n(CC2CC2)c(=O)c2cc(NC(=O)N3CCC[C@@H](NC(=O)c4cc(F)ccc4F)C3)c(F)cc21 [Example 287]
quantity_kind: inhibition at 1 µM
unit_abbrev: %
measured_result: 111
//
compound: Cc1ccc(F)c(C(=O)N[C@@H]2CCCN(C(=O)Nc3ccc4c(c3)c(=O)n(CC3CC3)c(=O)n4C(C)C)C2)c1 [Example 259]
quantity_kind: inhibition at 1 µM
unit_abbrev: %
measured_result: 102
//
compound: CC(C)n1c(=O)n(CC2CC2)c(=O)c2cc(NC(=O)N3CCCC(NC(=O)Nc4ccccc4)C3)ccc21 (stereo not shown) [Example 146]
quantity_kind: inhibition at 1 µM
unit_abbrev: %
measured_result: 103

----------
Biological target: UniProt P51449
Assay: Cofactor recruitment test (Alpha Screen, biotinylated SRC-1 peptide)
Type: biochemical
Conditions: read-out: signal value inhibitory rate (%) at test compound 1 μM
Structures can show the parent of a compound that is named as a salt.

molecule: CC(C)n1c(=O)n(CC2CC2)c(=O)c2cc(NC(=O)N3CCC[C@@H](NC(=O)c4ccc(C#N)cc4)C3)ccc21 [Example 218]
tested_target: UniProt P51449
inhibition at 1 µM / %: 111

molecule: Cc1cc(C(=O)N[C@@H]2CCCN(C(=O)Nc3ccc4c(c3)c(=O)n(CC3CC3)c(=O)n4C(C)C)C2)ccc1C#N [Example 249]
tested_target: UniProt P51449
inhibition at 1 µM / %: 110

molecule: CC(C)n1c(=O)n(CC2CC2)c(=O)c2cc(NC(=O)N3CCNC(C(=O)Nc4ccc(C#N)c(Cl)c4)C3)ccc21 (stereo not shown) [Example 82]
tested_target: UniProt P51449
inhibition at 1 µM / %: 103

molecule: COC(=O)c1ccc(C(=O)NC2CCCN(C(=O)Nc3ccc4c(c3)c(=O)n(CC3CC3)c(=O)n4C(C)C)C2)cc1 (stereo not shown) [Example 132]
tested_target: UniProt P51449
inhibition at 1 µM / %: 112

molecule: CC(C)n1c(=O)n(CC2CC2)c(=O)c2cc(NC(=O)N3CCO[C@@H](C(=O)Nc4cc(F)c(C#N)cc4F)C3)c(F)cc21 [Example 171]
tested_target: UniProt P51449
inhibition at 1 µM / %: 107

molecule: CC(C)n1c(=O)n(C[C@@H]2CCCO2)c(=O)c2cc(NC(=O)N3CCO[C@@H](C(=O)Nc4cc(Cl)c(C#N)cc4F)C3)c(F)cc21 [Example 358]
tested_target: UniProt P51449
inhibition at 1 µM / %: 107

molecule: CC(C)n1c(=O)n(CC2CC2)c(=O)c2cc(NC(=O)N3CCC[C@@H](NC(=O)c4ccc(C#N)s4)C3)c(F)cc21 [Example 292]
tested_target: UniProt P51449
inhibition at 1 µM / %: 112

molecule: CC(C)n1c(=O)n(CC2CC2)c(=O)c2cc(NC(=O)N3CCC[C@@H](NC(=O)c4ccc(C#N)cc4)C3)c(F)cc21 [Example 284]
tested_target: UniProt P51449
inhibition at 1 µM / %: 112

molecule: CC(C)n1c(=O)n(CC2CC2)c(=O)c2cc(NC(=O)N3CCNC(C(=O)Nc4ccc(C#N)c(F)c4)C3)ccc21 (stereo not shown) [Example 92, hydrochloride]
tested_target: UniProt P51449
inhibition at 1 µM / %: 103

molecule: CC(C)n1c(=O)n(CC2CC2)c(=O)c2cc(NC(=O)N3CCC[C@@H](n4cnc5cc(C#N)ccc5c4=O)C3)c(F)cc21 [Example 324]
tested_target: UniProt P51449
inhibition at 1 µM / %: 106

molecule: CC(C)n1c(=O)n(CC2CC2)c(=O)c2cc(NC(=O)N3CCC[C@@H](NC(=O)c4ccc(CNC(=O)OC(C)(C)C)cc4)C3)c(F)cc21 [Example 319]
tested_target: UniProt P51449
inhibition at 1 µM / %: 95

molecule: CC(C)n1c(=O)n(CC2CC2)c(=O)c2cc(NC(=O)N3CCCC(NC(=O)c4ccc(C#N)cc4)C3)ccc21 (stereo not shown) [Example 180]
tested_target: UniProt P51449
inhibition at 1 µM / %: 111

molecule: CC(C)n1c(=O)n(CC2CCOC2)c(=O)c2cc(NC(=O)N3CCO[C@@H](C(=O)Nc4ccc(C#N)c(Cl)c4)C3)c(F)cc21 (stereo partly shown) [Example 335]
tested_target: UniProt P51449
inhibition at 1 µM / %: 108

molecule: Cc1ccc(F)c(C(=O)N[C@@H]2CCCN(C(=O)Nc3cc4c(=O)n(CC5CC5)c(=O)n(C(C)C)c4cc3F)C2)c1 [Example 283]
tested_target: UniProt P51449
inhibition at 1 µM / %: 108

molecule: CC(C)n1c(=O)n(CC2CC(F)(F)C2)c(=O)c2cc(NC(=O)N3CCO[C@@H](C(=O)Nc4ccc(C#N)c(Cl)c4)C3)c(F)cc21 [Example 350]
tested_target: UniProt P51449
inhibition at 1 µM / %: 108

molecule: CC(C)n1c(=O)n(CC2CC2)c(=O)c2cc(NC(=O)N3CCC[C@@H](N4Cc5ccc(Cl)cc5C4=O)C3)c(F)cc21 [Example 336]
tested_target: UniProt P51449
inhibition at 1 µM / %: 106

molecule: COC(=O)N1Cc2ccc(C(=O)N[C@@H]3CCCN(C(=O)Nc4cc5c(=O)n(CC6CC6)c(=O)n(C(C)C)c5cc4F)C3)cc2C1 [Example 343]
tested_target: UniProt P51449
inhibition at 1 µM / %: 107

molecule: CC(C)n1c(=O)n(CC2CC2)c(=O)c2cc(NC(=O)N3CCO[C@@H](C(=O)Nc4cnc(C#N)c(F)c4)C3)ccc21 [Example 103]
tested_target: UniProt P51449
inhibition at 1 µM / %: 102

molecule: CC(C)n1c(=O)n(CC2CC2)c(=O)c2cc(NC(=O)N3CCC[C@@H](NC(=O)c4ccc5c(c4)CCO5)C3)ccc21 [Example 251]
tested_target: UniProt P51449
inhibition at 1 µM / %: 105

molecule: CC(C)n1c(=O)n(CC2CC2)c(=O)c2cc(NC(=O)N3CCC[C@@H](NC(=O)c4cccc(Cl)c4)C3)ccc21 [Example 248]
tested_target: UniProt P51449
inhibition at 1 µM / %: 104

molecule: CC(C)n1c(=O)n(CC2CC2)c(=O)c2cc(NC(=O)N3CCO[C@@H](C(=O)Nc4cnc(C#N)c(Cl)c4)C3)ccc21 [Example 122]
tested_target: UniProt P51449
inhibition at 1 µM / %: 112

molecule: CC(C)n1c(=O)n(CC2CC2)c(=O)c2cc(NC(=O)N3CCC[C@@H](NC(=O)c4cc(Cl)ccc4F)C3)c(F)cc21 [Example 282]
tested_target: UniProt P51449
inhibition at 1 µM / %: 108

molecule: CC(C)n1c(=O)n(CC2CC2)c(=O)c2cc(NC(=O)N3CCC[C@@H](NC(=O)c4ccc(C#N)cc4F)C3)ccc21 [Example 219]
tested_target: UniProt P51449
inhibition at 1 µM / %: 110

molecule: Cc1ccc(C(=O)N[C@@H]2CCCN(C(=O)Nc3ccc4c(c3)c(=O)n(CC3CC3)c(=O)n4C(C)C)C2)s1 [Example 242]
tested_target: UniProt P51449
inhibition at 1 µM / %: 105

molecule: COc1ccc2c(c1)C(=O)N([C@@H]1CCCN(C(=O)Nc3cc4c(=O)n(CC5CC5)c(=O)n(C(C)C)c4cc3F)C1)C2 [Example 303]
tested_target: UniProt P51449
inhibition at 1 µM / %: 107
